Tested on: RXF 393 renal
Assay: NCI-60 one-dose screen, 48 h (100 = growth as untreated, 0 = no growth, -100 = all killed)
Conditions: 10 µM unless noted
About 83,000 compounds went through this panel and 20% of them were active in at least one assay; those are over-represented in the sample as a whole.
Hi there, I'd appreciate the recorded growth for every entry that follows.
Answers are plain numbers, in %.

Look over these answered cases.
Cc1ccc(C)c(NC(=O)c2sc3c(=O)[nH]cnc3c2C)c1 : 90.1
CCOc1cc(/C=N\NC(=O)C[N+](C)(C)C)ccc1O : 120

Batch: growth for all items listed.
1. Cc1ccc2c(C)c3c(ccc4ccccc43)c[n+]2c1
2. NC(CCC(=O)NC(CS)C(=O)NCC(=O)O)C(=O)O (centres undefined)
3. CCNC(=O)c1ccc2c(c1)nc(-c1ccc(Cl)cc1)n2-c1cc(C(C)(C)C)[nH]n1
4. Cc1ccccc1NC(=O)c1sc2nc3c(cc2c1N)C(=O)CCC3
5. Cc1[nH]c2ccccc2c1C1=CC(=O)C=CC1=O
6. C/C(=N\Nc1ccc([N+](=O)[O-])cn1)c1ccc(N)cc1
7. O=C(Nc1cccc(N=Cc2c(O)ccc3ccccc23)c1)c1ccccc1
8. CN1C(=O)NC(Cc2c[nH]c3c(Cl)cccc23)C1=O (centres undefined)

Marked response:
1: 104; 2: -24.6; 3: 36.2; 4: -10.4; 5: 115; 6: 132; 7: 90.4; 8: 92.1

###

Test system: OVCAR-3 ovarian
Assay: NCI-60 one-dose screen, 48 h (100 = growth as untreated, 0 = no growth, -100 = all killed)
Settings: 10 µM unless noted
About 83,000 compounds went through this panel and 20% of them were active in at least one assay; those are over-represented in the sample as a whole.
Hi there, I'd appreciate the recorded growth for every entry that follows.
Answers are plain numbers, in %.

Look over these answered cases.
COc1ccc(-c2cnc(-c3ccncc3-c3cccc(OC)c3)o2)cc1 : -13.1
CN1CCC2(CC1)N=C(SCC(=O)Nc1cnc3ccccc3c1)C(c1ccc(Br)cc1)=N2 : 35.4

Batch: growth for all items listed.
1. O=C(Nc1ccccc1)c1cc2ccccc2s1
2. CCN(CC)CCCCCCCCNc1c2ccc(Cl)cc2nc2ccc(OC)cc12

Marked response:
1: 105; 2: -38.3

Exam item: Dear colleague, I am looking for the recorded growth of the following compound: "COc1cnc2c(c1)C(=O)c1c-2n(CCCN2CCN(C)CC2)c(=O)c2cc(Cl)ccc12"
Marked response: 68.3

###

Hi there, I'd appreciate the recorded growth for every entry that follows.
System: SF-295 CNS
Assay: NCI-60 one-dose screen, 48 h (100 = growth as untreated, 0 = no growth, -100 = all killed)
Conditions: 10 µM unless noted
This is part of a sample that, as a whole, favours compounds with a hit. Of some 83,000 tested, about 20% had one in any assay. Activity calls are given as the source filed them. Rule for the calls: active = growth percent below 10; inactive = the rest.

CC(C)CCSc1nc(-c2ccc(F)cc2)c(C#N)c(N2CCCCC2)n1 : 103% (inactive)
COc1cc(/C=N/NC(=O)Cn2c(-c3ccc(C)o3)nc3ccccc32)ccc1OCc1ccccc1 : 91.7% (inactive)
CO[C@H](C(=O)[C@@H](O)[C@@H](C)O)[C@@H]1Cc2cc3cc(O[C@H]4C[C@@H](O[C@H]5C[C@@H](O)[C@H](O)C(C)O5)[C@H](O)C(C)O4)c(C)c(O)c3c(O)c2C(=O)[C@H]1O[C@H]1C[C@@H](O[C@H]2C[C@@H](O[C@H]3C[C@](C)(O)C(=O)C(C)O3)[C@@H](O)C(C)O2)[C@H](O)C(C)O1 (stereo partly drawn) : 6.84% (active)
CC1=C(O)C(=O)CC1 : 94.9% (inactive)

Batch: growth for all items listed.
1. Cc1csc(N/N=C/c2ccncc2)n1
2. CC(C)CC1NC(=O)C(CC(C)C)N(CO)C1=O (stereo not drawn)
3. COc1cc2c(cc1OC)-c1cc(OC)c(OC)cc1C(CN(C)C)C2 (stereo not drawn)
4. CCCCCCCCOC(=O)C(C)OC(=O)OCCOCCOC(=O)OC(C)C(=O)OCCCCCCCC (stereo not drawn)

Marked response:
1. 108% (inactive)
2. 120% (inactive)
3. 4.33% [100 µM] (active)
4. 93.6% (inactive)

###

System: A549/ATCC NSCLC
Test: NCI-60 one-dose screen, 48 h (100 = growth as untreated, 0 = no growth, -100 = all killed)
Conditions: 10 µM unless noted
Method: Growth inhibition of the A549/ATCC human Non-Small Cell Lung tumor cell line is measured as a screen for anti-cancer activity. Cells are grown in 96 well plates and exposed to the test compound for 48 hours. Compounds are tested at a single concentration, which is 10^-5 M for most compounds. The reported endpoint is percent growth (GI% or GIPRCNT), where numbers from 0 - 100% represent growth inhibition, and numbers from -100% - 0 represent cell death. […]
This is part of a sample that, as a whole, favours compounds with a hit. Of some 83,000 tested, about 20% had one in any assay.
Hi there, I'd appreciate the recorded growth for every entry that follows.
One number for each entry, in %.

O=S(=O)(Cc1ccc(Cl)cc1Cl)c1ccc(Cl)cc1 : 30.7
CCOC(=O)Nc1ccc2nc(Sc3ccc(Cl)cc3)sc2c1 : 42.5
CNC1=C([N+](=O)[O-])C(c2ccccc2O)C(C#N)=C(c2cccs2)O1 (stereo not given) : 99.7
CCC(=O)NC1=C(Cl)C(=O)C(NC(=O)CC)=C(Cl)C1=O : 103
CCCCCCCCCCCCCCCC1=NC(C)(C)CN1C(C)C : -57.2
CCN(CC)c1ccc2c(cc1=O)[C@@H](NC(C)=O)CCc1cc(OC)c(OC)c(OC)c1-2 : 13.2
CC(=O)O[C@H]1CC[C@]2(C)[C@H]3CC=C4[C@@H]5CC(C)(C)CC[C@]5(C(=O)OCC(COC(=O)C(Cl)Cl)(COC(=O)C(Cl)Cl)NC(=O)C(Cl)Cl)CC[C@@]4(C)[C@]3(C)CC[C@H]2C1(C)C : 31.5
Cc1ccncc1NC=O : 102

Batch: growth for all items listed.
1. O/N=C1\c2ccccc2-c2ccc(Br)cc21
2. O=C(N/N=C\c1cc(Br)ccc1O)c1ccncc1

Marked response:
97.4
55.6

###

Test system: IGROV1 ovarian
Test: NCI-60 one-dose screen, 48 h
Settings: 10 µM unless noted
Method: Growth inhibition of the IGROV1 human tumor cell line is measured as a screen for anti-cancer activity. Cells are grown in 96 well plates and exposed to the test compound for 48 hours. Compounds are tested at a single concentration, which is 10^-5 M for most compounds. The reported endpoint is percent growth (GI% or GIPRCNT), where numbers from 0 - 100% represent growth inhibition, and numbers from -100% - 0 represent cell death. For example, a value of 40 represents 60% growth inhibition. […]
The panel holds about 83,000 compounds, 20% with a hit somewhere; the sample as a whole holds those more often. Active and inactive are the calls of the source. Rule for the calls: active = growth percent below 10; inactive = the rest.
Parameter call: string, one of active, inactive

Consider the worked cases shown below.
COC(=O)[C@@H](Cc1c[nH]c2ccccc12)NC(=O)/C=C/c1ccccc1 : inactive
COc1cc(C2CC(c3ccc(Cl)cc3)=NN2C(C)=O)ccc1Oc1ccnc2cc(Cl)ccc12 (stereo not given) : inactive
O=C1NN(C(=O)c2ccccc2)C(c2ccc(Cl)c(Cl)c2)=C/C1=C\c1ccccc1[N+](=O)[O-] : inactive
CS(=O)(=O)c1ccc(C(=O)N/N=C/c2ccc3c(c2)OCO3)cc1 : inactive
CC(=O)CC(c1ccc([N+](=O)[O-])cc1)c1c(O)c2ccccc2oc1=O (stereo not given) : inactive

Exam item: Fill in: this test's call for Cc1ccccc1C1CC(=O)c2ccccc2C1C (stereo not given) is ___
Marked response: inactive

Exam item: Fill in: this test's call for CC(=O)O[C@@H]1CC2C(C)(C)CCCC2(C)C2=C1C(=O)C(C(C)C)=CC2=O (stereo not given in full) is ___
Marked response: active

Exam item: Fill in: this test's call for "COc1ccccc1/C=N\Nc1ccc([N+](=O)[O-])cn1" is ___
Marked response: inactive

Exam item: Fill in: this test's call for "O=C(Nc1cccc(C2=NCCN2)c1)c1ccc(N=Nc2ccc(C(=O)Nc3cccc(C4=NCCN4)c3)cc2)cc1" is ___
Marked response: inactive

Exam item: Fill in: this test's call for "COc1ccc(/C(C)=N/NC(=O)c2ccc(S(C)(=O)=O)cc2)cc1OC" is ___
Marked response: inactive

###

Tested on: SN12C renal
Assay: NCI-60 one-dose screen, 48 h (100 = growth as untreated, 0 = no growth, -100 = all killed)
Settings: 10 µM unless noted
Description: Growth inhibition of the SN12C human tumor cell line is measured as a screen for anti-cancer activity. Cells are grown in 96 well plates and exposed to the test compound for 48 hours. Compounds are tested at a single concentration, which is 10^-5 M for most compounds. The reported endpoint is percent growth (GI% or GIPRCNT), where numbers from 0 - 100% represent growth inhibition, and numbers from -100% - 0 represent cell death. For example, a value of 40 represents 60% growth inhibition. […]
This is part of a sample that, as a whole, favours compounds with a hit. Of some 83,000 tested, about 20% had one in any assay.
READOUT NAME: growth (%)
Answers are plain numbers, in %.

Look over these answered cases.
Oc1c(C(Nc2ccccc2Br)c2ccccc2)ccc2cccnc12 (stereo unspecified) : 24.7
CC1(C)OC2OC3C(CN)OC(c4ccccc4)OC3C2O1 (stereo unspecified) : 103
COc1ccc([C@H]2c3[nH]c4ccccc4c3C[C@H]3C(=O)N(CCCCCCC(=O)NO)CC(=O)N23)cc1 : 46.5

Batch: growth for all items listed.
1. CCc1onc(-c2ccc(OC)cc2)c1-c1ccccc1OCCN(CC)CC
2. CNC(=O)OC1C(O[C@H]2C[C@H]3[C@@H]4CC=C5C[C@@H](O)CC[C@]5(C)[C@H]4CC[C@]3(C)[C@H]2[C@H](C)C(=O)CCC(C)C)OCC(O)C1OC1OCC(O)C(O)C1OC(=O)c1ccc(OC)cc1 (stereo partly specified)
3. COc1cc(NCCC2CCCCN2)c2ncccc2c1OC (stereo unspecified)
4. OC(COCc1ccccc1)COCc1ccccc1
5. C=CCOC(=O)C1=C(C)NC2=C(C(=O)CCC2)C1c1ccc(F)cc1 (stereo unspecified)
6. O=C(N/N=C\c1cc(Br)ccc1O)c1ccncc1

Marked response:
1: 91.4; 2: 59.9; 3: 81.6; 4: 104; 5: 92.1; 6: 46.5

Batch: growth for all items listed.
1. COc1ccc2nc3ccccc3c(NCc3ccc(C)cc3)c2c1
2. CCCCCCCCCCCC1=NC(C)(C)CN1C(C)C

Marked response:
[23.6, 61]
